TARGET ENTITY: GlcNAc(b1-6)Gal(b1-4)GlcNAc
METHOD DESCRIPTION: glycan array binding signal (z-score within array); higher = stronger binding
MEASUREMENT CONTEXT: glycan notation: IUPAC condensed, linker removed
This is one part of a sample in which the strongest signals are shown more often than they occur.
VALUE KIND: glycan array binding signal (z-score)

>>> number("EULS2 M3 (Oryza sativa) (protein) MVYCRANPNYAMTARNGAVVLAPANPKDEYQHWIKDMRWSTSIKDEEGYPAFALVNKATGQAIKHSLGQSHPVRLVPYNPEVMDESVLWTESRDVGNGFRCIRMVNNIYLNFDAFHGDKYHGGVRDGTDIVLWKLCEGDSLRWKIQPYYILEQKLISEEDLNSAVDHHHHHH")
1.64
>>> number("Threefoil (Haloarcula marismortui) (protein) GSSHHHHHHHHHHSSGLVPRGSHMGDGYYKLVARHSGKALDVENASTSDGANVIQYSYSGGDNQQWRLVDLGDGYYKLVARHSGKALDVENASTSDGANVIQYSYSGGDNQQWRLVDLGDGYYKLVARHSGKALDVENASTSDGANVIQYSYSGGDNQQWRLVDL")
0.035
>>> number("SP16663B-bot-321-25-321 (Bacteroides ovatus) (protein) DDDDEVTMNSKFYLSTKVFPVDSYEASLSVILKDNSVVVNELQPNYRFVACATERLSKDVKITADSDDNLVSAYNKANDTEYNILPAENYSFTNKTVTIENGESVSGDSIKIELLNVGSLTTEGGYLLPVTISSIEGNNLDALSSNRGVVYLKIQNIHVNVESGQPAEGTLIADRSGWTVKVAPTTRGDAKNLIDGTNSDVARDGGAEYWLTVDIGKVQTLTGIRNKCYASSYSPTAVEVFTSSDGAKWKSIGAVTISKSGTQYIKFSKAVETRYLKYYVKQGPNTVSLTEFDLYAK")
1.33
